Origin of the recorded values: ChEMBL document CHEMBL3826909

- target.system: Matrix protein VP40 (Lake Victoria marburgvirus (strain Ravn-87) (MARV) (Marburg virus (strainKenya/Ravn/1987)))
- measurement.protocol: Inhibition of Marburg virus VP40 PPxY L-domain motif expressed in HEK293T cells assessed as reduction in VLP budding at 0.1 uM relative to control
- Format: cell-based
- measurement.conditions: HEK-293T
The source made the active and inactive calls. The rule behind the calls is not given here.
value.kind: inhibition

Solved entries:
# query.smiles, value.kind, assay.result
rows = [
    ("Cc1cccnc1NC(=O)NC(=O)CSc1nc2ccccc2nc1C", "inhibition", "45%"),
    ("COc1cccc(NC(=O)NC(=O)CSc2nc3ccccc3nc2C)c1", "inhibition", "60%"),
    ("O=C(CSc1nc2ccccc2nc1C(F)(F)F)NC(=O)Nc1ccccc1Cl", "inhibition", "inactive"),
    ("Cc1cccc(NC(=O)NC(=O)CSc2nc3ccccc3nc2C)c1", "inhibition", "inactive"),
    ("Cc1nc2ccccc2nc1SCC(=O)NC(=O)Nc1ccccc1Cl", "inhibition", "99%"),
    ("Cc1nc2ccccc2nc1SCC(=O)NC(=O)Nc1cccc(F)c1C", "inhibition", "100%"),
    ("Cc1ncccc1NC(=O)NC(=O)CSc1nc2ccccc2nc1C", "inhibition", "41%"),
    ("Cc1ccc(NC(=O)NC(=O)CSc2nc3ccccc3nc2C)nc1", "inhibition", "96%"),
]

Batch lookup, inhibition per entry.
1. Cc1ccc(NC(=O)NC(=O)CSc2nc3ccccc3nc2C)cn1
2. Cc1ccccc1NC(=O)NC(=O)COc1nc2ccccc2nc1C

Return:
87%
58%

Batch lookup, inhibition per entry.
1. COc1ccccc1NC(=O)NC(=O)CSc1nc2ccccc2nc1C
2. Cc1nc2ccccc2nc1SCC(=O)NC(=O)NC1CC1
3. CCNC(=O)NC(=O)CSc1nc2ccccc2nc1C

Return:
60%
inactive
inactive

* * *

- target.system: Matrix protein VP40 (Lake Victoria marburgvirus (strain Ravn-87) (MARV) (Marburg virus (strainKenya/Ravn/1987)))
- measurement.protocol: Inhibition of Marburg virus VP40 PPxY L-domain motif expressed in HEK293T cells assessed as reduction in VLP budding at 1 uM relative to control
- Format: cell-based
- measurement.conditions: HEK-293T
Exercise: for every item that follows, state its recorded inhibition.

# query.smiles, inhibition
measured = [
    ("Cc1nc2ccccc2nc1SCC(=O)NC(=O)NCc1ccccc1", "60%"),
]

For the next question, use this compound.
Enquiry: For the compound "Cc1nc2ccccc2nc1SCC(=O)NC(=O)Nc1c(C)n[nH]c1C" , what inhibition is on record?
Return: 50%

* * *

- Tested on: Liver microsome
- measurement.protocol: Half life in human liver microsomes
- Assay type: ADME
value.kind: t1/2 (h)
Answers are plain numbers, in h.

Solved entries:
# query.smiles, value.kind, assay.result
rows = [
    ("Cc1nc2ccccc2nc1SCC(=O)NC(=O)Nc1ccccc1", "t1/2", 0.732),
    ("Cc1ccc(C)c(NC(=O)NC(=O)CSc2nc3ccccc3nc2C)c1", "t1/2", 1.29),
]

For the next question, use this compound.
Enquiry: Give recorded t1/2 with Liver microsome for the following compound: "Cc1nc2ccccc2nc1SCC(=O)NC(=O)Nc1ccccc1Cl"
Return: 1.27

* * *

- target.system: Matrix protein VP40 (Lake Victoria marburgvirus (strain Ravn-87) (MARV) (Marburg virus (strainKenya/Ravn/1987))) (UniProt Q1PDC8)
- Sequence (Q1PDC8 whole entry): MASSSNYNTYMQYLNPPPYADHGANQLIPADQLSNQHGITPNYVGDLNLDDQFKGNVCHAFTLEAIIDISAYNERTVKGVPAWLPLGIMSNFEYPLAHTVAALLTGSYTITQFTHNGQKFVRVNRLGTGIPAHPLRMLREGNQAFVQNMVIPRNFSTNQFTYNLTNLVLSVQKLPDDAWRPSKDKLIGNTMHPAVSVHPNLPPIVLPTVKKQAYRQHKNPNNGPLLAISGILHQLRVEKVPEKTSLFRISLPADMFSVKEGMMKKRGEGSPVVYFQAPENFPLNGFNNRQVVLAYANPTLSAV
- measurement.protocol: Inhibition of Marburg virus VP40 PPxY L-domain motif expressed in HEK293T cells assessed as reduction in VLP budding at 0.3 uM relative to control
- Assay type: cell-based
- measurement.conditions: HEK-293T
Exercise: for every item that follows, state its recorded inhibition.

# query.smiles, inhibition
measured = [
    ("Cc1ccc(NC(=O)NC(=O)CSc2nc3ccccc3nc2C)cc1", "100%"),
]

Batch lookup, inhibition per entry.
1. Cc1nc2ccccc2nc1SCC(=O)NC(=O)Nc1cccc(Cl)c1
2. Cc1ccc(NC(=O)NC(=O)CSc2nc3ccccc3nc2C)c(C)c1
3. COc1ccccc1NC(=O)NC(=O)CSc1nc2ccccc2nc1C
4. Cc1ccccc1NC(=O)NC(=O)COc1nc2ccccc2nc1C
5. Cc1ccc(NC(=O)NC(=O)CSc2nc3ccccc3nc2C)cc1C

Return:
1: 49%; 2: 100%; 3: 89%; 4: 100%; 5: 97%
